# assay.system: T1, nfP2X7 CAR 1
# T1 construct: CAR-positive cells gated by the co-expressed EGFR marker; also called nfP2X7 targeted CAR; nfP2X7 CAR on EGFR+ T cells
# protocol.text: flow cytometry, anti-His-FITC, MFI on EGFR+ (CAR+) over EGFR- (CAR-) T cells
outcome.measure: HisTag MFI Ratio of EGFR+/EGFR-
I only need the number, thanks.

Just so you know, measured HisTag MFI Ratio of EGFR+/EGFR- for CD19 BRIDGE variant B2 (Fab, V domains shown) VH: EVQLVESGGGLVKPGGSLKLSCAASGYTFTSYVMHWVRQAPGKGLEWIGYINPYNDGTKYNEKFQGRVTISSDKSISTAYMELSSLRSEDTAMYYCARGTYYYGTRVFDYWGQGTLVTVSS VL: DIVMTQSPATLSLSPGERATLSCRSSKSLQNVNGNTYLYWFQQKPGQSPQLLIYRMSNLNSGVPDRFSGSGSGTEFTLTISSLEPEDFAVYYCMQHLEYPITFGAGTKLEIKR came out at 4.1
